# tested_target: UniProt:P06401
# Sequence (P06401 whole entry): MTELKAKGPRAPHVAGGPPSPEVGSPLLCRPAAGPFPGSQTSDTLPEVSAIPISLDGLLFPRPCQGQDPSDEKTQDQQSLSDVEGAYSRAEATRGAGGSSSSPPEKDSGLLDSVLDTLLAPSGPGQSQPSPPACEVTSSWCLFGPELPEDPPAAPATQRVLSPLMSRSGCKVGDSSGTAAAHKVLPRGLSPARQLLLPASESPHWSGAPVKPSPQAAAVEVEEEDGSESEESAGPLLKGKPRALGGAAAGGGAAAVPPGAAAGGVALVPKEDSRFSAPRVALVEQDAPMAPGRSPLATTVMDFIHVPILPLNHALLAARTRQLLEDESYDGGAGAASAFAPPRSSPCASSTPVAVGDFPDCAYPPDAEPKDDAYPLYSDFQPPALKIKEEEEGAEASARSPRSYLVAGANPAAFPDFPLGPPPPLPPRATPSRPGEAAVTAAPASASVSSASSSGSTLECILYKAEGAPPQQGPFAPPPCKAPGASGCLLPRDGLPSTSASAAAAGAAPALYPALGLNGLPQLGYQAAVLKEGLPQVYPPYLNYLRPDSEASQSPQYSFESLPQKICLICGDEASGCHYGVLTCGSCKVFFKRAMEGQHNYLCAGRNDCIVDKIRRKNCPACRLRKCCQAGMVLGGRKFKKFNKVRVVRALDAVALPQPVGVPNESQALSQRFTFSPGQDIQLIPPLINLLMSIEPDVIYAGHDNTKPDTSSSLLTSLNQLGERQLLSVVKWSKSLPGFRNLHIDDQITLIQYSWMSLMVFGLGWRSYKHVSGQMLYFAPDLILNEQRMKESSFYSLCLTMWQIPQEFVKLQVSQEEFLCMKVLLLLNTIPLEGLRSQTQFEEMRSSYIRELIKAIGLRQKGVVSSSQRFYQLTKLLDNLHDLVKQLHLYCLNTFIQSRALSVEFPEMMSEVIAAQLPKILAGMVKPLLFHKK
# Assay type: functional
Reported AC50 values for the following compounds.

Some solved cases for reference:
                                   compound  test_readout  reported_measurement
0  Clc1ccc(C(Cn2ccnc2)OCc2ccc(Sc3ccccc3)cc2)c(Cl)c1 (stereo not drawn)          AC50                 25 µM
1               CNCCCC1c2ccccc2C=Cc2ccccc21          AC50               > 10 µM
2  CC(C)(C)NCC(O)c1cc(Cl)c(N)c(Cl)c1 (stereo not drawn)          AC50               > 30 µM

Item COc1c(O[C@@H]2O[C@H](CO)[C@@H](O)[C@H](O)[C@H]2O)cc2c(c1OC)-c1ccc(SC)c(=O)cc1[C@@H](NC(C)=O)CC2 [THIOCOLCHICOSIDE] has what recorded AC50? > 30 µM

Item Cc1cc(CC(=O)O)n(C)c1C(=O)c1ccc(Cl)cc1 [ZOMEPIRAC] has what recorded AC50? > 30 µM

Item CCCCCCOC(=O)CCC(=O)CN [HEXAMINOLEVULINATE] has what recorded AC50? > 30 µM

Item OCCN1CCN(CC/C=C2/c3ccccc3Sc3ccc(Cl)cc32)CC1 has what recorded AC50? > 10 µM

Item CCCN(CC)C(CC)C(=O)Nc1c(C)cccc1C (stereo not drawn) has what recorded AC50? > 30 µM

Item C#Cc1cccc(Nc2ncnc3cc(OCCOC)c(OCCOC)cc23)c1 has what recorded AC50? > 30 µM

Item COc1cccc2c1C(=O)c1c(O)c3c(c(O)c1C2=O)C[C@@](O)(C(C)=O)C[C@@H]3O[C@H]1C[C@H](N)[C@H](O)[C@H](C)O1 has what recorded AC50? > 3 µM

Item CN1CCN(c2c(F)cc3c(=O)c(C(=O)O)cn4c3c2SCC4)CC1 has what recorded AC50? > 30 µM

FYI, the data here is from ChEMBL document CHEMBL5291721.
